Data provenance is patent US20060177441A1.

Molecular target: T1, mpl-Ig (UniProt P40238 26-491)
T1 construct: Used as conditioned medium of mpl-Ig-transfected 293 cells, captured on anti-human IgG Fc plates; also called Mpl (Mpl/TPO ELISA); not shown: Ig part, captured by rabbit anti-human IgG Fc
T1 sequence (looked up): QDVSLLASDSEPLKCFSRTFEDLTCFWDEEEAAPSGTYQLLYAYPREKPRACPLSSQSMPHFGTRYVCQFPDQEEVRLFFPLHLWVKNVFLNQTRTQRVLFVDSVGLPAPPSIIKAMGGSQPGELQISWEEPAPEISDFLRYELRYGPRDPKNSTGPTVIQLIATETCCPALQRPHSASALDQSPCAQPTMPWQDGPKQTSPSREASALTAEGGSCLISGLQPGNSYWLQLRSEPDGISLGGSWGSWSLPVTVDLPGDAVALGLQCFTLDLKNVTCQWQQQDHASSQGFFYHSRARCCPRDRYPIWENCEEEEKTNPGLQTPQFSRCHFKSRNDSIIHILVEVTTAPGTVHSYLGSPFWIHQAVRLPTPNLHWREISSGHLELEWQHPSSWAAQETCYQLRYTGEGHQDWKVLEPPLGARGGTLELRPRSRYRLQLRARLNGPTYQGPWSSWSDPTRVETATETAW
Experiment: Mpl/TPO ELISA: inhibition of biotinylated TPO binding to captured mpl-Ig
READOUT TYPE: IC50 (nM)
Field: numeric (nM). Do not append units.

Solved cases (2 shown):
BINDER: 12E10 IgG (antibody, V domains shown, Full length antibody with human IgG1 CH1, CH2 and CH3 domains, expressed in 293 or CHO cells; also called full length human antibody derivative of 12E10) VH: QVQLQQSGPGLVKPSETLSLTCTVSGDSISSYYWSWIRQPPGKGLEWIGYIYYSGSTNYNPSLKSRVTISVDTSKSQFSLKLSSVTAADTAVYYCARGRYFDVWGRGTMVTVSS VL: SYVLTQPPSVSGSPGQSITISCTGTSSDVGGYNYVSWYQQHPGKAPKLMIYEGSKRPSGVSNRFSGSKSGNTASLTISGLQAEDEADYYCSSYTTRSTRVFGGGTKLTVL
VAL: 0.45
//
BINDER: 12B5 IgG (antibody, from another filing) scFv: QVQLVQSGGGLVRPGGSLSLSCAVSGITLRTYGMHWVRQAPGKGLEWVAGISFDGRSEYYADSVQGRFTISRDSSKNTLYLQMNSLRAEDTAVYYCARGAHYGFDIWGQGTMVTVSSGGGGTGGGGSGGGGSDIQMTQSPSTLSASIGDRVTITCRASEGIYHWLAWYQQKPGKAPKLLIYKASSLASGAPSRFSGSGSGTDFTLTISSLQPDDFATYYCQQYSNYPLTFGGGTKLEIK
VAL: 0.152

Let's switch to this binder now.
Need IC50 of 12E10 Fab (Fab, V domains shown, Monovalent Fab′ from E. coli: human IgG1 CH1 ending thr-ala-ala-pro, human kappa1 CL (pXCA730) or human lambda CL (pXCA970)) VH: QVQLQQSGPGLVKPSETLSLTCTVSGDSISSYYWSWIRQPPGKGLEWIGYIYYSGSTNYNPSLKSRVTISVDTSKSQFSLKLSSVTAADTAVYYCARGRYFDVWGRGTMVTVSS VL: SYVLTQPPSVSGSPGQSITISCTGTSSDVGGYNYVSWYQQHPGKAPKLMIYEGSKRPSGVSNRFSGSKSGNTASLTISGLQAEDEADYYCSSYTTRSTRVFGGGTKLTVL , thanks.
180
